Parameter kobsd /[I] human granzyme A: see the listing below.
biological target: human granzyme A (Homo sapiens, UniProt P12544); experiment: Inactivation rate of human granzyme A, incubation method; assay type: biochemical; conditions: Table I; 0.1M Hepes, 0.01M CaCl2 pH 7.5, 25° C., 7.6% DMSO, substrate Z--Arg--SBzl
Sequence (P12544 29-262): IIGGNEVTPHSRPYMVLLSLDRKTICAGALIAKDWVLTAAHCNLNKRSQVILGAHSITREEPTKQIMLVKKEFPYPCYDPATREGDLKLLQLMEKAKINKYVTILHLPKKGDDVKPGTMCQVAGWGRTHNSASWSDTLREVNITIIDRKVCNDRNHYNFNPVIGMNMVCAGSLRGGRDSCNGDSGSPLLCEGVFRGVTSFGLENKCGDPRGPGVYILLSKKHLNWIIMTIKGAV
valueKind: kobsd /[I] human granzyme A (M⁻¹ s⁻¹)

{"compound": "Cl.N=C(N)c1ccc(C(NC(=O)[C@@H]2CCCN2C(=O)c2cccc(Oc3ccccc3)c2)P(=O)(Oc2ccccc2)Oc2ccccc2)cc1 (some centres unmarked)", "testSystem": "human granzyme A (Homo sapiens, UniProt P12544)", "dataValue": 330}
{"compound": "C[C@H](NC(=O)[C@@H]1CCCN1C(=O)OCc1ccccc1)C(=O)NC(c1ccc(C(=N)N)cc1)P(=O)(Oc1ccccc1)Oc1ccccc1 (some centres unmarked) [Cbz--Pro--Ala-(4-AmPhGly)^P (OPh)2]", "testSystem": "human granzyme A (Homo sapiens, UniProt P12544)", "dataValue": 380}
{"compound": "Cl.N=C(N)c1ccc(C(NC(=O)C=Cc2ccco2)P(=O)(Oc2ccccc2)Oc2ccccc2)cc1 (centres unmarked) [(2-Furyl)acryloyl-(4-AmPhGly)^P (OPh)2]", "testSystem": "human granzyme A (Homo sapiens, UniProt P12544)", "dataValue": 1740}
{"compound": "Cl.N=C(N)c1ccc(C(NC(=O)[C@@H]2CCCN2C(=O)c2ccccc2Oc2ccccc2)P(=O)(Oc2ccccc2)Oc2ccccc2)cc1 (some centres unmarked)", "testSystem": "human granzyme A (Homo sapiens, UniProt P12544)", "dataValue": 610}
{"compound": "Cl.N=C(N)c1ccc(C(NC(=O)c2cccc(Oc3ccccc3)c2)P(=O)(Oc2ccccc2)Oc2ccccc2)cc1 (centres unmarked) [3-Phenoxybenzoyl-(4-AmPhGly)^P (OPh)2]", "testSystem": "human granzyme A (Homo sapiens, UniProt P12544)", "dataValue": 340}
{"compound": "Cl.N=C(N)c1ccc(C(NC(=O)[C@@H]2CCCN2C(=O)OCc2ccccc2)P(=O)(Oc2ccccc2)Oc2ccccc2)cc1 (some centres unmarked) [Cbz--Pro-(4-AmPhGly)^P (OPh)2]", "testSystem": "human granzyme A (Homo sapiens, UniProt P12544)", "dataValue": 790}
{"compound": "CC(NC(=O)C(CC(=O)O)NC(=O)OCc1ccccc1)C(=O)NC(c1ccc(C(=N)N)cc1)P(=O)(Oc1ccccc1)Oc1ccccc1 (mixture of isomers) [Cbz--Asp--Ala-(4-AmPhGly)^P (OPh)2]", "testSystem": "human granzyme A (Homo sapiens, UniProt P12544)", "dataValue": 240}
{"compound": "N=C(N)c1ccc(C(NS(=O)(=O)c2cccc3ccccc23)P(=O)(Oc2ccccc2)Oc2ccccc2)cc1 (racemic) [1-NpSO2-(4-AmPhGly)^P (OPh)2]", "testSystem": "human granzyme A (Homo sapiens, UniProt P12544)", "dataValue": 330}
{"compound": "Cl.N=C(N)c1ccc(C(NC(=O)/C=C/c2cccnc2)P(=O)(Oc2ccccc2)Oc2ccccc2)cc1 (centres unmarked)", "testSystem": "human granzyme A (Homo sapiens, UniProt P12544)", "dataValue": 5}
{"compound": "Cl.N=C(N)c1ccc(C(NC(=O)/C=C/c2ccccc2)P(=O)(Oc2ccccc2)Oc2ccccc2)cc1 (stereo not drawn) [trans-Cinnamoyl-(4-AmPhGly)^P (OPh)2]", "testSystem": "human granzyme A (Homo sapiens, UniProt P12544)", "dataValue": 400}
{"compound": "CC(C)(C)OC(=O)N[C@H](Cc1ccccc1)C(=O)N1CCC[C@H]1C(=O)NC(c1ccc(C(=N)N)cc1)P(=O)(Oc1ccccc1)Oc1ccccc1.Cl (stereo partly drawn) [Boc--D--Phe--Pro-(4-AmPhGly)^P (OPh)2]", "testSystem": "human granzyme A (Homo sapiens, UniProt P12544)", "dataValue": 170}
{"compound": "C[C@@H](O)[C@H](NC(=O)OCc1ccccc1)C(=O)NC(c1ccc(C(=N)N)cc1)P(=O)(Oc1ccccc1)Oc1ccccc1 (some centres unmarked) [Cbz--Thr-(4-AmPhGly)^P (OPh)2]", "testSystem": "human granzyme A (Homo sapiens, UniProt P12544)", "dataValue": 2220}
{"compound": "C[C@H](NC(=O)CCC(=O)O)C(=O)N[C@@H](C)C(=O)NC(c1ccc(C(=N)N)cc1)P(=O)(Oc1ccccc1)Oc1ccccc1 (some centres unmarked) [Suc--Ala--Ala-(4-AmPhGly)^P (OPh)2]", "testSystem": "human granzyme A (Homo sapiens, UniProt P12544)", "dataValue": 260}
{"compound": "N=C(N)c1ccc(C(NC(=O)C(Cc2ccccc2)NC(=O)OCc2ccccc2)P(=O)(Oc2ccccc2)Oc2ccccc2)cc1 (mixture of isomers) [Cbz--Phe-(4-AmPhGly)^P (OPh)2]", "testSystem": "human granzyme A (Homo sapiens, UniProt P12544)", "dataValue": 14}
{"compound": "N=C(N)c1ccc(C(NC(=O)C(CCCCN)NC(=O)OCc2ccccc2)P(=O)(Oc2ccccc2)Oc2ccccc2)cc1 (mixture of isomers) [Cbz--Lys-(4-AmPhGly)^P (OPh)2]", "testSystem": "human granzyme A (Homo sapiens, UniProt P12544)", "dataValue": 30}
{"compound": "CC(NC(=O)C(Cc1ccccc1)NC(=O)OCc1ccccc1)C(=O)NC(c1ccc(C(=N)N)cc1)P(=O)(Oc1ccccc1)Oc1ccccc1 (mixture of isomers) [Cbz--Phe--Ala-(4-AmPhGly)^P (OPh)2]", "testSystem": "human granzyme A (Homo sapiens, UniProt P12544)", "dataValue": 1770}
{"compound": "CC(NC(=O)C(CCCCN)NC(=O)OCc1ccccc1)C(=O)NC(c1ccc(C(=N)N)cc1)P(=O)(Oc1ccccc1)Oc1ccccc1 (mixture of isomers) [Cbz--Lys--Ala-(4-AmPhGly)^P (OPh)2]", "testSystem": "human granzyme A (Homo sapiens, UniProt P12544)", "dataValue": 90}

====

Parameter kobs /[I] mast cell tryptase: see the listing below.
biological target: mast cell tryptase (Homo sapiens); assay: Inactivation rate of mast cell tryptase, incubation method; format: biochemical; conditions: Table II; 0.07 μM tryptase, 20-66 μM inhibitor, Hepes pH 7.5, heparin, 9% glycerol, 8% DMSO, 25° C.; NI = no inhibition
Sequence (Q15661 31-275): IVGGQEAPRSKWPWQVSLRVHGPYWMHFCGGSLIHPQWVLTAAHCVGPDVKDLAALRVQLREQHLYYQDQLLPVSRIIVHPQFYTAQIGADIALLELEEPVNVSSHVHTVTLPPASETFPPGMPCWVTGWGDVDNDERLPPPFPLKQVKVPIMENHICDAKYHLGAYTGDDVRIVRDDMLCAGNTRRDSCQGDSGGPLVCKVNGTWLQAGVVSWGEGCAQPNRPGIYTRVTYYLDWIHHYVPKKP

{"compound": "CC(NC(=O)OCc1ccccc1)C(=O)NC(C)C(=O)NC(C)C(=O)NC(c1ccc(C(=N)N)cc1)P(=O)(Oc1ccccc1)Oc1ccccc1 (mixture of isomers)", "resultUnits": "M⁻¹ s⁻¹", "kobs /[I] mast cell tryptase": 2.0}
{"compound": "CC(NC(=O)C(CCCCN)NC(=O)OCc1ccccc1)C(=O)NC(c1ccc(C(=N)N)cc1)P(=O)(Oc1ccccc1)Oc1ccccc1 (mixture of isomers)", "resultUnits": "M⁻¹ s⁻¹", "kobs /[I] mast cell tryptase": 2.0}
{"compound": "Cl.N=C(N)c1ccc(C(NC(=O)/C=C/c2ccccc2)P(=O)(Oc2ccccc2)Oc2ccccc2)cc1 (stereo not drawn) [trans-Cinnamoyl-(4-AmPhGly)^P (OPh)2]", "resultUnits": "M⁻¹ s⁻¹", "kobs /[I] mast cell tryptase": 0.3}
{"compound": "Cl.N=C(N)c1ccc(C(NC(=O)OCc2ccccc2)P(=O)(Oc2ccc(Cl)cc2)Oc2ccc(Cl)cc2)cc1 (centres unmarked)", "resultUnits": "M⁻¹ s⁻¹", "kobs /[I] mast cell tryptase": 3}
{"compound": "CC(NC(=O)OCc1ccccc1)C(=O)NC(c1ccc(C(=N)N)cc1)P(=O)(Oc1ccccc1)Oc1ccccc1 (mixture of isomers)", "resultUnits": "M⁻¹ s⁻¹", "kobs /[I] mast cell tryptase": 0.8}

====

biological target: human thrombin (Homo sapiens); construct: bovine trypsin, human thrombin; assay type: biochemical; settings: Table II; 0.07 μM thrombin, 0.25-42 μM inhibitor, 80 mM Hepes pH 7.5, 428 mM NaCl, 8% DMSO, 25° C.; NI = no inhibition
Parameter kobs /[I] human thrombin: see the listing below.
valueKind: kobs /[I] human thrombin (M⁻¹ s⁻¹)

{"compound": "CC(NC(=O)OCc1ccccc1)C(=O)NC(c1ccc(C(=N)N)cc1)P(=O)(Oc1ccccc1)Oc1ccccc1 (mixture of isomers)", "valueKind": "kobs /[I] human thrombin", "resultUnits": "M⁻¹ s⁻¹", "dataValue": 750}
{"compound": "CC(C)(C)OC(=O)NC(CO)C(=O)NC(c1ccc(C(=N)N)cc1)P(=O)(Oc1ccccc1)Oc1ccccc1 (mixture of isomers)", "valueKind": "kobs /[I] human thrombin", "resultUnits": "M⁻¹ s⁻¹", "dataValue": 31}
{"compound": "CC(C)CC(NC(=O)OC(C)(C)C)C(=O)NC(C(=O)NC(c1ccc(C(=N)N)cc1)P(=O)(Oc1ccccc1)Oc1ccccc1)C(C)O (mixture of isomers)", "valueKind": "kobs /[I] human thrombin", "resultUnits": "M⁻¹ s⁻¹", "dataValue": 75}
{"compound": "Cl.N=C(N)c1ccc(C(NC(=O)c2cccc(Oc3ccccc3)c2)P(=O)(Oc2ccccc2)Oc2ccccc2)cc1 (stereo not shown)", "valueKind": "kobs /[I] human thrombin", "resultUnits": "M⁻¹ s⁻¹", "dataValue": 200}
{"compound": "C[C@H](NC(=O)[C@@H]1CCCN1C(=O)OCc1ccccc1)C(=O)NC(c1ccc(C(=N)N)cc1)P(=O)(Oc1ccccc1)Oc1ccccc1 (stereo partly shown)", "valueKind": "kobs /[I] human thrombin", "resultUnits": "M⁻¹ s⁻¹", "dataValue": 70}
{"compound": "C[C@H](NC(=O)CCC(=O)O)C(=O)N[C@@H](C)C(=O)NC(c1ccc(C(=N)N)cc1)P(=O)(Oc1ccccc1)Oc1ccccc1 (stereo partly shown)", "valueKind": "kobs /[I] human thrombin", "resultUnits": "M⁻¹ s⁻¹", "dataValue": 2}
{"compound": "N=C(N)c1ccc(C(NC(=O)CCCc2ccccc2)P(=O)(Oc2ccccc2)Oc2ccccc2)cc1 (stereo not shown)", "valueKind": "kobs /[I] human thrombin", "resultUnits": "M⁻¹ s⁻¹", "dataValue": 17}
{"compound": "N=C(N)c1ccc(C(NC(=O)C(CCCCN)NC(=O)OCc2ccccc2)P(=O)(Oc2ccccc2)Oc2ccccc2)cc1 (mixture of isomers)", "valueKind": "kobs /[I] human thrombin", "resultUnits": "M⁻¹ s⁻¹", "dataValue": 88}
{"compound": "CC(C)C(NC(=O)OCc1ccccc1)C(=O)NC(c1ccc(C(=N)N)cc1)P(=O)(Oc1ccccc1)Oc1ccccc1 (mixture of isomers)", "valueKind": "kobs /[I] human thrombin", "resultUnits": "M⁻¹ s⁻¹", "dataValue": 5.5}
{"compound": "Cl.N=C(N)c1ccc(C(NC(=O)OCc2ccccc2)P(=O)(Oc2ccccc2)Oc2ccccc2)cc1 (stereo not shown)", "valueKind": "kobs /[I] human thrombin", "resultUnits": "M⁻¹ s⁻¹", "dataValue": 80}
{"compound": "CC(C)CC(NC(=O)OC(C)(C)C)C(=O)NC(CC(=O)OC(C)(C)C)C(=O)N1CCCC1C(=O)NC(c1ccc(C(=N)N)cc1)P(=O)(Oc1ccccc1)Oc1ccccc1 (mixture of isomers)", "valueKind": "kobs /[I] human thrombin", "resultUnits": "M⁻¹ s⁻¹", "dataValue": 502}
{"compound": "Cl.N=C(N)c1ccc(C(NC(=O)/C=C/c2cccnc2)P(=O)(Oc2ccccc2)Oc2ccccc2)cc1 (stereo not shown)", "valueKind": "kobs /[I] human thrombin", "resultUnits": "M⁻¹ s⁻¹", "dataValue": 2}
{"compound": "CC(NC(=O)C(CCCCNC(=O)OC(C)(C)C)NC(=O)OCc1ccccc1)C(=O)NC(c1ccc(C(=N)N)cc1)P(=O)(Oc1ccccc1)Oc1ccccc1 (mixture of isomers)", "valueKind": "kobs /[I] human thrombin", "resultUnits": "M⁻¹ s⁻¹", "dataValue": 450}
{"compound": "N=C(N)c1ccc(C(NC(=O)CNC(=O)C(CCC(=O)O)NC(=O)OCc2ccccc2)P(=O)(Oc2ccccc2)Oc2ccccc2)cc1 (mixture of isomers)", "valueKind": "kobs /[I] human thrombin", "resultUnits": "M⁻¹ s⁻¹", "dataValue": 46}
{"compound": "C[C@H](NC(=O)[C@H](CC(=O)OC(C)(C)C)NC(=O)OCc1ccccc1)C(=O)NC(c1ccc(C(=N)N)cc1)P(=O)(Oc1ccccc1)Oc1ccccc1 (stereo partly shown)", "valueKind": "kobs /[I] human thrombin", "resultUnits": "M⁻¹ s⁻¹", "dataValue": 480}
{"compound": "CC(C)CC(NC(=O)C(CC(N)=O)NC(=O)OC(C)(C)C)C(=O)NC(C(=O)NC(c1ccc(C(=N)N)cc1)P(=O)(Oc1ccccc1)Oc1ccccc1)C(C)O (mixture of isomers)", "valueKind": "kobs /[I] human thrombin", "resultUnits": "M⁻¹ s⁻¹", "dataValue": 46}
{"compound": "Cc1ccc(S(=O)(=O)NC(c2ccc(C(=N)N)cc2)P(=O)(Oc2ccccc2)Oc2ccccc2)cc1 (racemic)", "valueKind": "kobs /[I] human thrombin", "resultUnits": "M⁻¹ s⁻¹", "dataValue": 94}

These entries and their values trace back to patent US5952307A.
